Measurement target: T1, huFLT3-T227 stably expressed on Ramos cells (human, UniProt P36888 27-993)
T1 construct: whole, on cells; also called FLT3 WT
Experiment summary: FACS on cells
Property: FACS geometric mean fold change over Jurkat parental

Given item Polypeptide No. 257 (scFv, V domains shown, scFv) VH: QVQLVQSGAEVKKPGASVKVSCKASGYTFTNYFMHWVRQAPGQGLEWMGIINPSGGSTSYAQKFQGRVTMTRDTSTSTVYMELSSLRSEDTAVYYCARAHTVYYYGMDVWGQGTMVTVSS VL: DIQMTQSPSSLSASVGDRVTITCRASQSISSWLAWYQQKPGKAPKLLIYAASTLQSGVPSRFSGSGSGTDFTLTISSLQPEDFATYYCQQSYSTPWTFGQGTKLEIKR , the value recorded as its FACS geometric mean fold change over Jurkat parental is 10 to 30 fold

// field: FACS geometric mean fold change over Jurkat parental; key: Polypeptide No. 253 (scFv, V domains shown, scFv) VH: QVQLVQSGAEVKKPGSSVKVSCKASGYTFTTYFMHWVRQAPGQGLEWMGGIVPVFGTTKYAQKFQGRVTITADESTSTAYMELSSLRSEDTAVYYCASSAVGWFDPWGQGTLVTVSS VL: DIQMTQSPSSLSASVGDRVTITCRASQDISRWLAWYQQKPGKAPKLLIYAASSLQSGVPSRFSGSGSGTDFTLTISSLQPEDFATYYCQQYDNFPLTFGGGTKLEIKR ; value = 2 to 10 fold

Briefly, FACS geometric mean fold change over Jurkat parental measured for Polypeptide No. 207 (scFv, V domains shown, scFv) VH: QVQLVQSGAEVKKPGASVKVSCKASGYTFTNYYMHWVRQAPGQGLEWMGWMNPNSGNTGYAQRFQGRVTMTRDTSTSTVYMELSSLRSEDTAVYYCAKSHYYYFYGMDVWGQGTTVTVSS VL: DIQMTQSPSSLSASVGDRVTITCQASHDISKYLNWYQQKPGKAPKLLIYAASILQSGVPSRFSGSGSGTDFTLTISSLQPEDFATYYCQQSYSTPYTFGQGTKLEIKR : 10 to 30 fold

// FACS geometric mean fold change over Jurkat parental value for Polypeptide No. 243 (scFv, V domains shown, scFv) VH: QVQLVQSGAEVKKPGSSVKVSCKASGGTFSSHAFNWVRQAPGQGLEWMGGISPMFGTPNYAQKFQGRVTITADESTSTAYMELSSLRSEDTAVYYCARAPDYGDDWYFDLWGRGTLVTVSS VL: EIVMTQSPATLSVSPGERATLSCRASQTLTGGLLAWYQQKPGQAPRLLIYDTSSRAAGIPARFSGSGSGTEFTLTISSLQSEDFAVYYCHHYGSSPYTFGQGTKVEIKR : 2 to 10 fold

Note to self: FACS geometric mean fold change over Jurkat parental recorded for Polypeptide No. 231 (scFv, V domains shown, scFv) VH: QVQLVQSGAEVKKPGASVKVSCKASGYTFTSYYIHWVRQAPGQGLEWMGLINPSGGSTTYAQSFQGRVTMTRDTSTSTVYMELSSLRSEDTAVYYCARGLGWGVVVPAAELDYWGQGTLVTVSS VL: DIQMTQSPSSLSASVGDRVTITCRASQSISTYLNWYQQKPGKAPKLLIYAASNLQSGVPSRFSGSGSGTDFTLTISSLQPEDFATYYCQQSYSSPLTFGPGTKVDIKR was > 30 fold

Reported FACS geometric mean fold change over Jurkat parental of Polypeptide No. 202 (scFv, V domains shown, scFv) VH: QVQLVQSGAEVKKPGASVKVSCKASGYTFTNYYMHWVRQAPGQGLEWMGVINPSGGSTNYAQKFQGRVTMTRDTSTSTVYMELSSLRSEDTAVYYCARAGVGAFHIWGQGTMVTVSS VL: DIQMTQSPSSLSASVGDRVTITCRASQSIRSWLAWYQQKPGKAPKLLIYDASNLETGVPSRFSGSGSGTDFTLTISSLQPEDFATYYCQQIYSLPRTFGQGTKVEIKR : < 2 fold

Lab book: FACS geometric mean fold change over Jurkat parental of Polypeptide No. 254 (scFv, V domains shown, scFv) VH: QVQLVQSGAEVKKPGASVKVSCKASGYTFTSHYMHWVRQAPGQGLEWMGWISPYNGNTNYAQKLQGRVTMTRDTSTSTVYMELSSLRSEDTAVYYCARGESNSGWINFDYWGQGTLVTVSS VL: EIVMTQSPATLSVSPGERATLSCRASQSVSSSSLAWYQQKPGQAPRLLIYDTSTRATGIPARFSGSGSGTEFTLTISSLQSEDFAVYYCQQYGTSPITFGQGTRLEIKR noted as 10 to 30 fold

Lab note: Polypeptide No. 265 (scFv, V domains shown, scFv) VH: QVQLVQSGAEVKKPGSSVKVSCKASGHTFTSDYMHWVRQAPGQGLEWMGRIIPIFGTADYAQKFQGRVTITADESTSTAYMELSSLRSEDTAVYYCARDDSSGIFDYWGQGTLVTVSS VL: EIVMTQSPATLSVSPGERATLSCRASQSVNSEHLAWYQQKPGQAPRLLIYDTSSRATGIPARFSGSGSGTEFTLTISSLQSEDFAVYYCQQYGSSPVTFGQGTKVEIKR gave FACS geometric mean fold change over Jurkat parental of 10 to 30 fold

The reported FACS geometric mean fold change over Jurkat parental of the binder Polypeptide No. 294 (scFv, V domains shown, scFv) VH: QVQLVQSGAEVKKPGASVKVSCKASGYTFTSNNMHWVRQAPGQGLEWMGWINLNSGGTNYAQKFQGRVTMTRDTSTSTVYMELSSLRSEDTAVYYCAKAIDYYYMDVWGKGTTVTVSS VL: DIQMTQSPSSLSASVGDRVTITCRASQGIRNDLGWYQQKPGKAPKLLIYQASSLENGVPSRFSGSGSGTDFTLTISSLQPEDFATYYCQQAYSLPWTFGQGTKLEIKR was 10 to 30 fold

Documented FACS geometric mean fold change over Jurkat parental of Polypeptide No. 273 (scFv, V domains shown, scFv) VH: QVQLVQSGAEVKKPGSSVKVSCKASGDTFNSYAVNWVRQAPGQGLEWMGGIIPSFGTPTYAWKFQGRVTITADESTSTAYMELSSLRSEDTAVYYCASVSYGSFDYWGQGTLVTVSS VL: EIVMTQSPATLSVSPGERATLSCRASQSVSSSSLAWYQQKPGQAPRLLIYDASTRASGIPARFSGSGSGTEFTLTISSLQSEDFAVYYCQQYNRLPYTFGQGTKLEIKR : 10 to 30 fold

This collection of values is drawn from patent US20240101668A1.
